Plant response rating, Field Poppy listing for selected compounds.
System: field poppy (Papaver rhoeas)
Test: Test D controlled growth environment herbicide test, pre- and postemergence
Type: in vivo
Settings: Preemergence, 125 g ai/ha; scale 0 to 100 (0 no effect, 100 complete control)

{"columns": ["Smiles data", "Plant response rating, Field Poppy"],
 "data": [
  ["CCOC(=O)Oc1c(C)nn(C)c(=O)c1-c1c(C)sc2c(C)cc(C)cc12", 100],
  ["CCC(=O)Oc1c(C)nn(C)c(=O)c1-c1c(C)sc2c(C)cc(C)cc12", 95],
  ["COc1nn(C)c(=O)c(-c2c(C)ccc3ccccc23)c1O", 100],
  ["Cc1ccc2sc(C)c(-c3c(O)c(C)nn(C)c3=O)c2c1", 95],
  ["CC(=O)Oc1c(C)nn(C)c(=O)c1-c1c(C)sc2ccc(C)cc12", 100],
  ["Cc1ccc2ccccc2c1-c1c(O)c(C)nn(C)c1=O", 100],
  ["CCOC(=O)Oc1c(C)nn(C)c(=O)c1-c1c(C)sc2ccc(C)cc12", 100]
]}

###

Test system: bluegrass (annual bluegrass, Poa annua)
Assay: Test D controlled growth environment herbicide test, pre- and postemergence
Type: in vivo
Settings: Postemergence, 31 g ai/ha; scale 0 to 100 (0 no effect, 100 complete control)
Bluegrass plant response rating listing for selected compounds.

{"columns": ["Compound", "Bluegrass plant response rating"],
 "data": [
  ["CC(=O)Oc1c(C)nn(C)c(=O)c1-c1c(C)cc(C)c2ccccc12 [Compound 153]", 15],
  ["Cc1nn(C)c(=O)c(-c2c(C)sc3ccc(Cl)cc23)c1O [Compound 104]", 10],
  ["Cc1ccc2ccc(C)c(-c3c(O)c(C)nn(C)c3=O)c2c1 [Compound 60]", 15],
  ["Cc1cc(C)c2sc(C)c(-c3c(OC(=O)OCCCl)c(C)nn(C)c3=O)c2c1 [Compound 85]", 10],
  ["CC(=O)Oc1c(C)nn(C)c(=O)c1-c1ccc(F)c2ccccc12 [Compound 90]", 5],
  ["Cc1ccc(-c2c(O)c(Br)nn(C)c2=O)c2ccccc12 [Compound 52]", 5],
  ["CCC(=O)Oc1c(C)nn(C)c(=O)c1-c1c(C)sc2c(C)cc(C)cc12 [Compound 28]", 20],
  ["CCC(=O)Oc1c(C)nn(C)c(=O)c1-c1c(C)sc2ccc(C)cc12 [Compound 42]", 15],
  ["CCC(=O)Oc1c(C)nn(C)c(=O)c1-c1c(C)sc2ccc(Cl)cc12 [Compound 109]", 5]
]}

###

Tested on: barley, spring (spring barley, Hordeum vulgare)
Test: Test D controlled growth environment herbicide test, pre- and postemergence
Assay type: in vivo
Conditions: Postemergence, 250 g ai/ha; scale 0 to 100 (0 no effect, 100 complete control)
Reported endpoint: Plant response rating, Barley, Spring

{"columns": ["Molecule", "System", "Value observed"],
 "data": [
  ["CCC(=O)Oc1c(C)nn(C)c(=O)c1-c1c(C)sc2ccc(C)cc12 [Compound 42]", "barley, spring (spring barley, Hordeum vulgare)", 10],
  ["CCOC(=O)Oc1c(C)nn(C)c(=O)c1-c1c(C)ccc2ccccc12 [Compound 73]", "barley, spring (spring barley, Hordeum vulgare)", 40],
  ["Cc1ccc2ccc(C)c(-c3c(O)c(C)nn(C)c3=O)c2c1 [Compound 60]", "barley, spring (spring barley, Hordeum vulgare)", 50],
  ["CC(=O)Oc1c(C)nn(C)c(=O)c1-c1c(C)sc2ccc(C)cc12 [Compound 25]", "barley, spring (spring barley, Hordeum vulgare)", 10],
  ["CCC(=O)Oc1c(C)nn(C)c(=O)c1-c1c(C)sc2ccc(Cl)cc12 [Compound 109]", "barley, spring (spring barley, Hordeum vulgare)", 25]
]}

###

Tested on: corn (Zea mays)
Assay: Test E greenhouse herbicide test, pre- and postemergence
Assay type: in vivo
Conditions: 250 g ai/ha, Postemergence; scale 0 to 100 (0 no effect, 100 complete control)
Plant response rating, Corn listing for selected compounds.

{"columns": ["Smiles data", "Plant response rating, Corn"],
 "data": [
  ["CSCC(=O)Oc1c(C)nn(C)c(=O)c1-c1cccc2ccccc12", 0],
  ["COC(=O)Oc1c(C)nn(C)c(=O)c1-c1c(C)sc2c(C)cc(C)cc12", 5],
  ["COc1nn(C)c(=O)c(-c2c(C)sc3ccc(Cl)cc23)c1O", 0],
  ["CC(=O)Oc1c(C)nn(C)c(=O)c1-c1c(C)cc(C)c2ccccc12", 0]
]}

###

Plant response rating, Pigweed listing for selected compounds.
System: pigweed (Amaranthus retroflexus)
Assay: Test A greenhouse herbicide test, pre- and postemergence
Format: in vivo
Settings: Postemergence, 500 g ai/ha; visual rating after approx. 10 d, 0 to 100 scale (0 no effect, 100 complete control)

{"columns": ["Smiles data", "System", "Plant response rating, Pigweed"],
 "data": [
  ["CCc1ccc2ccc(C)cc2c1-c1c(O)c(C)nn(C)c1=O", "pigweed (Amaranthus retroflexus)", 100],
  ["Cc1nn(C)c(=O)c(-c2ccc(F)c3ccccc23)c1OC(=O)CC(F)(F)F", "pigweed (Amaranthus retroflexus)", 70],
  ["COC(=O)Cn1nc(C)c(O)c(-c2cccc3ccccc23)c1=O", "pigweed (Amaranthus retroflexus)", 30],
  ["Cc1nn(C)c(=O)c(-c2ccc(Cl)c3ccccc23)c1OS(=O)(=O)N(C)C", "pigweed (Amaranthus retroflexus)", 90],
  ["CC(=O)Oc1c(C)nn(C)c(=O)c1-c1c([N+](=O)[O-])ccc2ccccc12", "pigweed (Amaranthus retroflexus)", 80],
  ["Cc1nn(C)c(=O)c(-c2ccc(Cl)c3ccccc23)c1OP(C)(C)=O", "pigweed (Amaranthus retroflexus)", 90],
  ["COc1nn(C)c(=O)c(-c2c(C)sc3ccc(Cl)cc23)c1OS(C)(=O)=O", "pigweed (Amaranthus retroflexus)", 20],
  ["CCc1nn(C)c(=O)c(-c2c(C)oc3ccccc23)c1O", "pigweed (Amaranthus retroflexus)", 20],
  ["CC(=O)Oc1c(C#N)nn(C)c(=O)c1-c1c(C)ccc2ccccc12", "pigweed (Amaranthus retroflexus)", 100],
  ["CSCC(=O)Oc1c(C)nn(C)c(=O)c1-c1cccc2ccccc12", "pigweed (Amaranthus retroflexus)", 100],
  ["Cc1ccc2ccccc2c1-c1c(O)c([N+](=O)[O-])nn(C)c1=O", "pigweed (Amaranthus retroflexus)", 0],
  ["Cc1cc(C)c2sc(C)c(-c3c(OCC#N)c(C)nn(C)c3=O)c2c1", "pigweed (Amaranthus retroflexus)", 80],
  ["CCC(=O)Oc1c(C)nn(C)c(=O)c1-c1c(C)sc2ccc(Cl)cc12", "pigweed (Amaranthus retroflexus)", 90],
  ["Cc1ccc2ccccc2c1-c1c(O)c(Cl)nn(C)c1=O", "pigweed (Amaranthus retroflexus)", 100],
  ["COC(=O)Oc1c(Cl)nn(C)c(=O)c1-c1c(C)sc2ccc(Cl)cc12", "pigweed (Amaranthus retroflexus)", 70]
]}

###

Tested on: barnyardgrass (Echinochloa crus-galli)
Experiment: Test C greenhouse herbicide test, pre- and postemergence
Assay type: in vivo
Settings: Postemergence, 31 g ai/ha; 0 to 100 scale (0 no effect, 100 complete control)
Barnyardgrass plant response rating listing for selected molecules.

{"columns": ["Molecule", "Barnyardgrass plant response rating"],
 "data": [
  ["CC(=O)Oc1c(C#N)nn(C)c(=O)c1-c1c(C)ccc2ccccc12 [Compound 98]", 60],
  ["Cc1ccc2ccccc2c1-c1c(O)c(C)nn(C)c1=O [Compound 59]", 20],
  ["CCOC(=O)Oc1c(C)nn(C)c(=O)c1-c1c(C)sc2ccc(C)cc12 [Compound 82]", 20],
  ["Cc1cc(C)c2sc(C)c(-c3c(OC(=O)OCCCl)c(C)nn(C)c3=O)c2c1 [Compound 85]", 25],
  ["COc1nn(C)c(=O)c(-c2c(C)sc3ccc(Cl)cc23)c1O [Compound 100]", 10]
]}

###

Tested on: blackgrass (Alopecurus myosuroides)
Assay: Test D controlled growth environment herbicide test, pre- and postemergence
Format: in vivo
Conditions: postemergence, 62 g ai/ha; scale 0 to 100, 0 no effect, 100 complete control
Plant response rating, Blackgrass listing for selected compounds.

{"columns": ["Smiles data", "System", "Plant response rating, Blackgrass"],
 "data": [
  ["Cc1ccc(-c2c(O)c(Br)nn(C)c2=O)c2ccccc12", "blackgrass (Alopecurus myosuroides)", 15],
  ["Cc1ccc2ccc(C)c(-c3c(O)c(C)nn(C)c3=O)c2c1", "blackgrass (Alopecurus myosuroides)", 80],
  ["COC(=O)Oc1c(C)nn(C)c(=O)c1-c1c(C)sc2c(C)cc(C)cc12", "blackgrass (Alopecurus myosuroides)", 75],
  ["C#CCOC(=O)Oc1c(C)nn(C)c(=O)c1-c1c(C)sc2ccc(C)cc12", "blackgrass (Alopecurus myosuroides)", 75],
  ["Cc1cc(C)c2sc(C)c(-c3c(OC(=O)OCCCl)c(C)nn(C)c3=O)c2c1", "blackgrass (Alopecurus myosuroides)", 80]
]}
